These entries and their values trace back to PubChem BioAssay AID1347417.

The following molecules are shown together with reported activity, negative = inhibition values.
Test: qHTS Primary assay for Inhibitors of Plasmodium falciparum Dd2 growth in vitro; note: nearly all actives have a fitted effect of over 65% in size;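 for activity, negative = inhibition: plate controls were DMSO vehicle for no effect and reference drug for full effect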
Conditions: P. falciparum Dd2 growth, SYBR Green, 72 h; series mostly up to 28.9 µM
Screen size: about 120,000 compounds; about 5,300 (4.4%) were called active. About 22% were inconclusive and are not listed. This excerpt belongs to a sample that is enriched for actives.

{"Molecule": "CCOc1ccccc1NC(=O)N1c2ccccc2CC1c1nc(C(C)C)no1 (stereo unspecified)", "activity, negative = inhibition": "-4.28% [at 5.79 µM] (inactive)"}
{"Molecule": "CCCN(CC1CCOC1)S(=O)(=O)c1ccc2c(c1)CCCC2 (stereo unspecified)", "activity, negative = inhibition": "7.48% [at 5.79 µM] (inactive)"}
{"Molecule": "CCc1nc(-c2ccc(OC3CCN(C(=O)Cc4c[nH]c5ccccc45)C3)cc2)no1 (stereo unspecified)", "activity, negative = inhibition": "2.05% [at 5.79 µM] (inactive)"}
{"Molecule": "COc1nccnc1NC1CCN(C(=O)CCc2c(C)noc2C)CC1", "activity, negative = inhibition": "30.5% [at 5.79 µM] (inactive)"}
{"Molecule": "CN(Cc1cccnc1)c1nc2c(c(=O)[nH]1)CCN(Cc1cc(F)ccc1F)CC2", "activity, negative = inhibition": "14.7% [at 5.79 µM] (inactive)"}
{"Molecule": "COc1ccc2c(CNCCc3ccccc3C)c(C(=O)O)n(Cc3ccccc3C)c2c1", "activity, negative = inhibition": "54.4% [at 5.79 µM] (inactive)"}

----------
Test: qHTS Primary assay for Inhibitors of Plasmodium falciparum Dd2 growth in vitro; note: nearly all actives have a fitted effect of over 65% in size
Settings: P. falciparum Dd2 growth, SYBR Green, 72 h; series mostly up to 28.9 µM
Among all 120,000 compounds or so, about 5,300 (4.4%) were called active. About 22% were inconclusive and are not listed. Calls come from the whole dose curve; as a rule, active = well fitted inhibition curve with a large enough effect; inconclusive = small, poorly fitted or top-dose-only effect; inactive = no such curve, though single readings can be large or run the other way. For the sample, actives were picked, then their nearest neighbours and some compounds at random.
Classes used: active, inactive

{"Compound": "O=C(N1CCCC1)N1CCCC(c2nnc3n2CCNC3)C1 (stereo not given)", "Answer label": "inactive"}
{"Compound": "COCC(=O)NC1CCC12CCN(S(=O)(=O)c1c(C)noc1C)CC2 (stereo not given)", "Answer label": "inactive"}
{"Compound": "Cc1ccc(N2CCN(C(=O)c3ccc4c(c3)N(C)C3CCCCCN3C4=O)CC2)cc1 (stereo not given)", "Answer label": "inactive"}
{"Compound": "CC(=O)c1c(C)n(S(=O)(=O)c2ccc(Cl)cc2)c2ccc(NS(=O)(=O)c3ccc(Cl)cc3)cc12", "Answer label": "active"}
{"Compound": "COc1ccc(-c2cnc3n2CC(C(=O)NCCCN2CCCC2=O)CC3)cc1 (stereo not given)", "Answer label": "inactive"}
{"Compound": "CC1(C)[C@H](Cc2cc(CCO)on2)C[C@@H]1NCC1CC1", "Answer label": "inactive"}
{"Compound": "Cn1c(=O)n(C)c2cc(NS(=O)(=O)c3ccc(F)cc3)ccc21", "Answer label": "inactive"}
{"Compound": "Cc1c(NS(=O)(=O)c2ccc(Cl)cc2)c(=O)n(-c2ccccc2)n1C", "Answer label": "inactive"}
{"Compound": "CC(NC(=O)c1coc(COc2ccc3c(c2)OCO3)n1)c1ccc2[nH]ccc2c1 (stereo not given)", "Answer label": "inactive"}
{"Compound": "CC(C)c1nc(C2Cc3ccccc3N2S(=O)(=O)c2cn(C)cn2)no1 (stereo not given)", "Answer label": "inactive"}

----------
Test: qHTS Primary assay for Inhibitors of Plasmodium falciparum Dd2 growth in vitro; note: nearly all actives have a fitted effect of over 65% in size
Details: P. falciparum Dd2 growth, SYBR Green, 72 h; series mostly up to 28.9 µM
Text: Malaria, a parasitic disease spread to humans through the bite of a Plasmodium infected Anopheles mosquito, continues to be a global health burden affecting millions of people, with an estimated 228 million cases and 405,000 deaths in 2018. […] Malaria-vivax Assay Protocol: PROTOCOL TABLE (as described by Inglese et al., 2007) SEQUENCE No. (e.g., 1, 2, 3, etc.); […] […] Compound Management for Quantitative High-Throughput Screening. […]
Among all 120,000 compounds or so, about 5,300 (4.4%) were called active. Roughly 22% stayed inconclusive and do not appear here. The call rests on the fitted dose curve; in most records, active means well fitted inhibition curve with a large enough effect; inconclusive means small, poorly fitted or top-dose-only effect; inactive means no such curve, though single readings can be large or run the other way. Many of the other results were omitted from the sample, so actives are more common in it than they were.
Classes used: yes (1) (active), no (0) (inactive)

{"Compound": "O=C1NCCCCCCN(Cc2ccncc2)[C@@H]2CN(C(=O)Nc3ccc4c(c3)OCCO4)CC[C@@H]12", "Answer label": "no (0)"}
{"Compound": "Cc1nc(N(C)C)ncc1C(=O)N[C@@H]1CCOC[C@H]1Oc1ccccn1", "Answer label": "no (0)"}
{"Compound": "O=C1NCCCCCN(Cc2cccnc2)[C@@H]2CN(C(=O)C3CCCCC3)CC[C@@H]12", "Answer label": "no (0)"}
{"Compound": "CCOC(=O)C1CCCN(C(=O)Cc2ccc(N(Cc3cccc(F)c3)C(=O)c3ccco3)cc2)C1 (stereo not given)", "Answer label": "yes (1)"}
{"Compound": "O=Cc1cccc(-c2cc(F)cc(F)c2)c1", "Answer label": "no (0)"}

----------
Assay: qHTS Primary assay for Inhibitors of Plasmodium falciparum Dd2 growth in vitro; note: nearly all actives have a fitted effect of over 65% in size
Settings: P. falciparum Dd2 growth, SYBR Green, 72 h; series mostly up to 28.9 µM
Among all 120,000 compounds or so, about 5,300 (4.4%) were called active. Another 22% or so got no clear call; they are omitted. Calls come from the whole dose curve; as a rule, active = well fitted inhibition curve with a large enough effect; inconclusive = small, poorly fitted or top-dose-only effect; inactive = no such curve, though single readings can be large or run the other way. For the sample, actives were picked, then their nearest neighbours and some compounds at random.
Classes used: label 1 (active), label 0 (inactive)

{"Compound": "CCN1CCCC1CNC(=O)CCC1CCN(Cc2ccc(Cl)o2)CC1 (stereo unspecified)", "Answer label": "label 0"}
{"Compound": "O=C(CCC1CCCN(S(=O)(=O)c2ccc(F)cc2)C1)NC1CCS(=O)(=O)C1 (stereo unspecified)", "Answer label": "label 0"}
{"Compound": "Cc1ccc(S(=O)(=O)N2CCCC(CCC(=O)NC3CCCCC3)C2)cc1 (stereo unspecified)", "Answer label": "label 1"}
{"Compound": "CCCC1c2nccn2CCCN1C(=O)c1ccc(OC)nc1 (stereo unspecified)", "Answer label": "label 0"}
{"Compound": "Cc1ccc(C(=O)N2CCC(CCC(=O)NC3CCCCC3)CC2)cc1", "Answer label": "label 0"}
{"Compound": "Cc1ccc2c(c1)N1C(=O)OC[C@@H]1CCN(C(=O)c1ccno1)C2", "Answer label": "label 0"}

----------
Test: qHTS Primary assay for Inhibitors of Plasmodium falciparum Dd2 growth in vitro; note: nearly all actives have a fitted effect of over 65% in size
Settings: P. falciparum Dd2 growth, SYBR Green, 72 h; series mostly up to 28.9 µM
Screen size: about 120,000 compounds; about 5,300 (4.4%) were called active. Inconclusive results (about 22%) are left out. Calls come from the whole dose curve; as a rule, active = well fitted inhibition curve with a large enough effect; inconclusive = small, poorly fitted or top-dose-only effect; inactive = no such curve, though single readings can be large or run the other way. The entries come from a sample that favours actives as a whole.
Classes used: active, inactive

{"Compound": "CCOc1cccc(CN2CCC3(CC2)CN(C)CC3COC)c1 (stereo not given)", "Answer label": "active"}
{"Compound": "COCC1CN(C(C)=O)CC12CCN(C(=O)NCc1cccc(OC)c1)CC2 (stereo not given)", "Answer label": "inactive"}
{"Compound": "Cc1cccc(C(=O)N2C[C@@H](Oc3cccnc3)C[C@H]2C(=O)N2CCCC2)c1", "Answer label": "inactive"}
{"Compound": "Cc1c(C(=O)N(C)C)sc2c1c(=O)n(-c1ccc(F)cc1)c(=O)n2CC(=O)N(C)c1ccccc1", "Answer label": "inactive"}
{"Compound": "CCOc1ccccc1NC(=O)Cn1c(=O)n(Cc2ccccc2)c(=O)c2c(C)c(C(=O)N(C)C)sc21", "Answer label": "active"}
{"Compound": "CN(Cc1cccn1C)Cc1ccnn1C", "Answer label": "inactive"}
{"Compound": "COc1cccc(-n2c(=O)c3c(C)c(C(=O)N(C)C)sc3n(CC(=O)NCCc3ccc(OC)c(OC)c3)c2=O)c1", "Answer label": "inactive"}
{"Compound": "Cc1noc(-c2cn(C3CCN(C(=O)c4ccoc4)CC3)nn2)n1", "Answer label": "inactive"}
{"Compound": "COc1cccc(C(=O)N2CCC(N3CCCCCC3=O)CC2)c1", "Answer label": "inactive"}
{"Compound": "COC[C@@H]1CN(C(=O)c2cc(C)oc2C)C[C@H]1c1nc(C2CC2)no1", "Answer label": "inactive"}

----------
Assay: qHTS Primary assay for Inhibitors of Plasmodium falciparum Dd2 growth in vitro; note: nearly all actives have a fitted effect of over 65% in size
Conditions: P. falciparum Dd2 growth, SYBR Green, 72 h; series mostly up to 28.9 µM
Out of some 120,000 compounds screened, about 5,300 (4.4%) were called active. Another 22% or so got no clear call; they are omitted. The call rests on the fitted dose curve; in most records, active means well fitted inhibition curve with a large enough effect; inconclusive means small, poorly fitted or top-dose-only effect; inactive means no such curve, though single readings can be large or run the other way. For the sample, actives were picked, then their nearest neighbours and some compounds at random.
Classes used: Yes = active, No = inactive

{"Molecule": "Cc1ccc(S(=O)(=O)c2c(Nc3cccc(Cl)c3)sc(C(=O)c3ccc4c(c3)OCO4)c2N)cc1", "Answer label": "Yes"}
{"Molecule": "CC(C)(C)c1csc(NC(=O)C[C@H]2NC(=O)c3ccccc3NC2=O)n1", "Answer label": "No"}
{"Molecule": "O=C1OC[C@@H]2CCN(Cc3cnc4ccccc4c3)Cc3ccc(F)cc3N12", "Answer label": "Yes"}
{"Molecule": "Cc1ccc(CN2C[C@H]3CN(C(=O)c4ccc5c(c4)OCO5)CCN3C2=O)cc1", "Answer label": "No"}
{"Molecule": "CCC(C)NC(=O)CN1CN(c2ccccc2)C2(CCN(C(=O)c3ccccc3OC)CC2)C1=O (stereo not given)", "Answer label": "No"}
{"Molecule": "Cc1cccc(Nc2nc(C)nc(N)c2S(=O)(=O)c2ccccc2)c1", "Answer label": "No"}
{"Molecule": "COc1cc(NC(=O)NCC2CCN(Cc3ccc(C)cc3)CC2)cc(OC)c1OC", "Answer label": "No"}
{"Molecule": "O=C1CCC(C(=O)NCc2ccc(-c3cnc4c(Oc5ccccc5)nccn34)cc2)N1 (stereo not given)", "Answer label": "No"}
{"Molecule": "COc1ccc(N2C(=O)CSC23CCN(C(=O)c2ccc(C)cc2)CC3)cc1", "Answer label": "No"}
{"Molecule": "COc1cccc(C(=O)c2sc3nc(-c4ccccc4)cc(C(F)(F)F)c3c2N)c1", "Answer label": "No"}
{"Molecule": "Cc1ccc2c(c1)N(CC(=O)NCCCN1CCCCC1)C(=O)c1cccnc1O2", "Answer label": "No"}
{"Molecule": "O=C(NCCC1CCN(C(=O)Nc2cc(F)ccc2F)CC1)c1cc(F)ccc1F", "Answer label": "No"}
{"Molecule": "COCC1CN(C(C)=O)CC12CCN(Cc1ccccc1OC)CC2 (stereo not given)", "Answer label": "No"}
{"Molecule": "COc1ccc(S(=O)(=O)c2c(Nc3cccc(Cl)c3)sc(C(=O)c3ccccc3)c2N)cc1", "Answer label": "Yes"}
{"Molecule": "COc1ccccc1CN1CCC(CNC(=O)c2cnn(-c3ccccc3Cl)c2C2CCN(C(=O)OC(C)(C)C)CC2)CC1", "Answer label": "Yes"}
{"Molecule": "COc1ccccc1CN1CC[C@H](CNC(C)=O)[C@H](N(C)C)C1", "Answer label": "No"}
{"Molecule": "Cc1ccc(CN2CCC(CNC(=O)c3cnn(-c4ccccc4Cl)c3C3CCN(C(=O)OC(C)(C)C)CC3)CC2)cc1", "Answer label": "Yes"}
{"Molecule": "CC(C)(C)OC(=O)N1CCC(c2c(C(=O)NCCc3ccsc3)cnn2-c2ccc(F)cc2F)CC1", "Answer label": "Yes"}
{"Molecule": "CCC(=O)N1CCc2c(sc3ncnc(NCc4cccnc4)c23)C1", "Answer label": "No"}
{"Molecule": "CCOC(=O)c1ccc(NC(=O)CCS(=O)(=O)c2ccc(C)cc2)cc1", "Answer label": "No"}
